# system name: T1, His/Avi-CynoIL18BP (recombinant cynomolgus IL-18BP with His and Avi tags) (cynomolgus monkey)
# T1 construct: also called cynomolgus IL-18BP-Avi-His
# T1 chain: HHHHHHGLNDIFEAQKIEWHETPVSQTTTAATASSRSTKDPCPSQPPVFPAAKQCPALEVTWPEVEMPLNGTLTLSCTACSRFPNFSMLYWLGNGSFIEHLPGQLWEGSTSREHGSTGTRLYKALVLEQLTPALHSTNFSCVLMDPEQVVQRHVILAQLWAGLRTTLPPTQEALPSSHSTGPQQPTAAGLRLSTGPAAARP
# assay text: ELISA, coated IL-18BP
readout name: ELISA binding ratio (fold-change over background)

Record excerpt, results attached:
[
  {
    "binder": "anti-IL18BP antibody BP-16 (antibody, human IgG1, V domains shown) VH: QVQLVQSGAEVKKPGASVKVSCKASGYTFTTYDINWVRQAPGQGLEWMGIIGSYGGATSYAQKFQGRVTMTRDTSTSTVYMELSSLRSEDTAVYYCATAEEELRFDYWGQGTLVTVSS VL: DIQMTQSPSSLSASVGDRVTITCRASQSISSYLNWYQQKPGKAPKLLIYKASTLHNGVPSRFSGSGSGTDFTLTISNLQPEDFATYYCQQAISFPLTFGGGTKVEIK",
    "result": "25.1 fold over background"
  },
  {
    "binder": "anti-IL18BP antibody BP-12 (antibody, human IgG1, V domains shown) VH: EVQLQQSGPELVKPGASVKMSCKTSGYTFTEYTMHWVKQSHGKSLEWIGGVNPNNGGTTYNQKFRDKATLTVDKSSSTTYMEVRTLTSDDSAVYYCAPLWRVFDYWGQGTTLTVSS VL: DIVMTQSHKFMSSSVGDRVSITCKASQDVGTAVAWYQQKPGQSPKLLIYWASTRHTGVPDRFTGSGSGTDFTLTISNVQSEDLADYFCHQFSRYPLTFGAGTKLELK",
    "result": "44 fold over background"
  }
]

Okay, next one:
Prompt: Please give measured ELISA binding ratio (fold-change over background) of the following entry: anti-IL18BP antibody BP-08 (antibody, human IgG1, V domains shown) VH: QVQLQQPGAELVKPGASVKLSCKVSGYTFTSYWMHWVKQRPGQGLEWIGMIDPNSDSSRYNEKFKNRATLTADKSSSTAFMQFSSLTSEDSAVYYCARSRLGQDYWGQGTTLTVSS VL: DIVMTQSHKFMSTSVGDRVSITCKASQDVSTAVAWYQQKPGQSPKLLIYWASTRHTGVPDRFTGSESGTDYTLIISSVQAEDLALYYCQQHFSTPYTFGGGTKLEIK
Response: 41.5 fold over background
